- TARGET: caspase-3 (CPP32) (Homo sapiens, UniProt P42574)
- Sequence (P42574 29-175 limits assumed): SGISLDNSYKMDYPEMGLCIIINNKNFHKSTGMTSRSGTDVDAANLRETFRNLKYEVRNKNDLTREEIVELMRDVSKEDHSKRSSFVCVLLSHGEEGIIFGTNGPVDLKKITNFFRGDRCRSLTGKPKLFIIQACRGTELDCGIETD
- Sequence (P42574 176-277 limits assumed): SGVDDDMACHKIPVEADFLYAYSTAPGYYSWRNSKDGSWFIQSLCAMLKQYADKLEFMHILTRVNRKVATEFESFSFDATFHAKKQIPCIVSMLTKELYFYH
- ASSAY SUMMARY: Fluorometric enzyme assay of caspase-3 inhibition
- MEASUREMENT PARAMETERS: recombinant caspase-3, substrate Asp-Glu-Val-Asp-AMC 5 μM, 30° C., 30 minutes
- Experimental: The activity of Cbz-Phg-Asp-fmk as an inhibitor of caspase-3 (CPP32) was measured in a fluorometric enzyme assay. […] Enzyme activity was measured using synthetic peptide substrates attached to a fluorogenic leaving group. Cleavage of the synthetic substrate by the enzyme results in a fluorescent signal which is read in a spectrofluorometer or in a fluorometric microtiter plate reader. […]
Square brackets hold non-standard residues; d marks the D form. Peptide text beside a SMILES is read from it. * marks the point of attachment. 1Nal = N[C@@H](Cc1cccc2ccccc12)C(=O)O; Cbz = O=C(OCc1ccccc1)*; CH2F = FC*
// reported pIC50 per item
Note on units: pIC50 is unitless, being -log10 of a concentration expressed in mol/L.

Given N#CCC(NC(=O)OCc1ccccc1)C(=O)NC(CC(=O)O)C(=O)CF (stereo not drawn) [Z-[(L)-3-CN--Ala]--Asp--fmk, Z-[(L)-3-CN-Ala]-Asp-fmk] , state its recorded pIC50.
6.28

Given CC(C(NC(=O)OCc1ccccc1)C(=O)NC(CC(=O)O)C(=O)CF)C(F)(F)F (stereo not drawn) [Z--(F3 --Val)--Asp--fmk, Z-(F3 -Val)-Asp-fmk] , state its recorded pIC50.
6.22

Given O=C(O)CC(NC(=O)C(NC(=O)OCc1ccccc1)c1ccc(Cl)cc1)C(=O)CF (stereo not drawn) [Z-(4-Cl--Phg)--Asp--fmk, Z-(4-Cl-Phg)-Asp-fmk] , state its recorded pIC50.
6.57

Given O=C(O)CC(NC(=O)C(CF)NC(=O)OCc1ccccc1)C(=O)CF (stereo not drawn) [Z-(3-F-Ala)--Asp--fmk, Z-(3-F-Ala)-Asp-fmk] , state its recorded pIC50.
6.05

Given O=C(O)CC(NC(=O)C(CCl)NC(=O)OCc1ccccc1)C(=O)CF (stereo not drawn) [Z-[(L)-3-Cl--Ala]--Asp--fmk, Z-[(L)-3-Cl-Ala]-Asp-fmk] , state its recorded pIC50.
6.00

Given O=C(O)C[C@H](NC(=O)C(NC(=O)OCc1ccccc1)c1cccs1)C(=O)CF (stereo partly drawn) [Z-(2-Thg)--Asp--fmk, Z-(2-Thg)-Asp-fmk] , state its recorded pIC50.
6.55

Given CC(C)C(CNC(=O)OCc1ccccc1)C(=O)N[C@@H](CC(=O)O)C(=O)CF (stereo partly drawn) [Z-(2-i-Pr-- --Ala)--Asp--fmk, Z-(2-i-Pr-β-Ala)-Asp-fmk] , state its recorded pIC50.
5.85

Given O=C(O)CC(NC(=O)C(NC(=O)OCc1ccccc1)c1ccco1)C(=O)CF (stereo not drawn) [Z-(2-Fug)--Asp--fmk, Z-(2-Fug)-Asp-fmk] , state its recorded pIC50.
6.36

Given O=C(O)CC(NC(=O)C(NC(=O)OCc1ccccc1)c1ccc(C(F)(F)F)cc1)C(=O)CF (stereo not drawn) [Z-(4-CF3 --Phg)--Asp--fmk, Z-(4-CF3 -Phg)-Asp-fmk] , state its recorded pIC50.
5.92

Given O=C(O)CC(NC(=O)C(NC(=O)OCc1ccccc1)c1ccsc1)C(=O)CF (stereo not drawn) [Z-[(L)-3-Thg]--Asp--fmk] [Z-[(L)-3-Thg]-Asp-fmk] , state its recorded pIC50.
6.59

Given O=C(O)CC(NC(=O)C(NC(=O)OCc1ccccc1)c1cccs1)C(=O)CF (stereo not drawn) [Z-[(L)-2-Thg]--Asp--fmk, Z-[(L)-2-Thg]-Asp-fmk] , state its recorded pIC50.
6.29

Given O=C(O)C[C@H](NC(=O)[C@H](Cc1cccc2ccccc12)NC(=O)OCc1ccccc1)C(=O)CF [Z-[(L)-1-Nal]--Asp--fmk, Z-[(L)-1-Nal]-Asp-fmk] (Cbz-[1Nal]-Asp-CH2F) , state its recorded pIC50.
6.00

Reference source for all entries: patent US6153591A
